pIC50 for assorted molecules
- Measurement target: human DGKα (Homo sapiens, UniProt P23743)
- Construct: TVMV protease cleavage site (C); Hexa-His (C); made in house; host or cells: Sf9 insect cells (baculovirus, Bac-to-Bac)
- Sequence (P23743 with tags, fused parts or gaps): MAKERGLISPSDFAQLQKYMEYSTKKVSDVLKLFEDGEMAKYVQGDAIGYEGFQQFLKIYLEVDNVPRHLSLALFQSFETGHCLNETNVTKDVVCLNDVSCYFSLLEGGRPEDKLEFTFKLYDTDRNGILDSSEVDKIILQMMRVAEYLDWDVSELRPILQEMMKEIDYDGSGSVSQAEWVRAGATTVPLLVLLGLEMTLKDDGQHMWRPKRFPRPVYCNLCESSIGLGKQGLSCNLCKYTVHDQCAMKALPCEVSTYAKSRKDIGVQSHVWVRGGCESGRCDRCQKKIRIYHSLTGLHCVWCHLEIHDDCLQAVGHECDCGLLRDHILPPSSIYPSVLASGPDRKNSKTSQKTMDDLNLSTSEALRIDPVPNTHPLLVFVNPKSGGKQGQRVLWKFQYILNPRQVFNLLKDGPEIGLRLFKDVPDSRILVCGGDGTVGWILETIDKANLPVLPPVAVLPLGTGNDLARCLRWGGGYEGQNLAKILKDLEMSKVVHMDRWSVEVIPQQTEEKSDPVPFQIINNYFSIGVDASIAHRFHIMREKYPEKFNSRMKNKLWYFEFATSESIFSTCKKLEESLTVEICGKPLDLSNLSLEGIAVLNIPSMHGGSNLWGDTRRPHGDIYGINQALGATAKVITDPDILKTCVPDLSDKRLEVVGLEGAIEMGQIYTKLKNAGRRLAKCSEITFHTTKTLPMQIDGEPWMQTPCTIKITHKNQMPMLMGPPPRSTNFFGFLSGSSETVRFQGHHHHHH
- Measurement protocol: DGKα LIPGLO assay (extruded liposome substrate), in vitro DGK inhibition
- Type: biochemical
- Test parameters: liposome (LIPGLO) assay; read-out: DGKa LIPGLO IC50
pIC50: −log10 of the molar value.
Metric name: pIC50

* COc1ncccc1C(c1ccc(F)cc1)N1C[C@H](C)N(c2cc(=O)n(C)c3ccc(C#N)nc23)C[C@H]1C (single isomer, unassigned) [Example 209] | 4.82
* C[C@@H]1CN(c2cc(=O)n(C)c3ccc(C#N)nc23)[C@@H](C)CN1C(c1ccc(F)cc1)c1cccnn1 (single isomer, unassigned) [Example 384] | 5.82
* CCc1cc(F)ccc1C(c1ccc(F)cc1)N1C[C@H](C)N(c2cc(=O)n(C)c3ccc(C#N)nc23)C[C@H]1C (single isomer, unassigned) [Example 228] | 4.24
* C[C@@H]1CN(c2cc(=O)n(C)c3ccc(C#N)nc23)[C@@H](C)CN1Cc1ccccc1O | 8.07
* C[C@@H]1CN(c2cc(=O)n(C)c3ccc(C#N)nc23)[C@@H](C)CN1C(c1cccc(Cl)c1)c1cccc(Cl)c1 | 4.60
* CC[C@@H]1CN(c2cc(=O)n(C)c3ccc(C#N)nc23)[C@@H](C)CN1C(c1ccc(F)cc1)c1ncccc1F (stereo partly drawn) [Example 1104] | 6.60
* CCOc1cc(F)c(CN2C[C@H](C)N(c3cc(=O)n(C)c4ccc(C#N)nc34)C[C@H]2C)c(F)c1 | 6.85
* C[C@@H]1CN(c2cc(=O)n(C)c3ccc(C#N)nc23)[C@@H](C)CN1C(COC(F)F)c1ccc(F)cc1 (single isomer, unassigned) [Example 1189] | 6.09
* COc1ncccc1C(c1ccc(F)cc1)N1C[C@H](C)N(c2cc(=O)n(C)c3ccc(C#N)nc23)C[C@H]1C (single isomer, unassigned) [Example 210] | 4.85
* C[C@H]1CN(C(c2ccc(F)cc2)c2ccon2)[C@H](CO)CN1c1cc(=O)n(C)c2ccc(C#N)nc12 (single isomer, unassigned) [Example 1391] | 6.82
* CC[C@@H]1CN(c2cc(=O)n(C)c3ccc(C#N)nc23)[C@@H](C)CN1C(c1ccc(F)cc1)c1ccc(C#N)cc1 (single isomer, unassigned) [Example 1102] | 6.19
* CC[C@@H]1CN(c2cc(=O)n(C)c3ccc(C#N)nc23)[C@@H](CC)CN1Cc1cc(F)c(F)c(F)c1 | 5.80

* * *

- Measurement target: human DGKα (Homo sapiens, UniProt P23743)
- Construct: TVMV protease cleavage site (C); Hexa-His (C); made in house; host or cells: Sf9 insect cells (baculovirus, Bac-to-Bac)
- Measurement protocol: DGKα LIPGLO assay (extruded liposome substrate), in vitro DGK inhibition
- Format: biochemical
- Test parameters: liposome (LIPGLO) assay; read-out: DGKa LIPGLO IC50
Cut-off 1000 nM on IC50: below means satisfied, at or above means not satisfied.

• Cn1c(=O)cc(N2CCN(C(c3ccc(F)cc3)c3ccc(F)cc3)CC2CO)c2nc(C#N)ccc21 (single isomer, unassigned) [Example 147] = not satisfied
• COc1ccc(OC(F)(F)F)cc1CN1C[C@H](C)N(c2cc(=O)n(C)c3ccc(C#N)nc23)C[C@H]1C = not satisfied
• C[C@@H]1CN(c2cc(=O)n(C)c3ccc(C#N)nc23)[C@@H](C)CN1C(CO)c1ccc(C(F)(F)F)cn1 (single isomer, unassigned) [Example 1280] = not satisfied
• C[C@@H]1CN(c2cc(=O)n(C)c3ccc(C#N)nc23)[C@@H](C)CN1C(c1ccc(Cl)cc1)c1ccccn1 (single isomer, unassigned) [Example 381] = satisfied
• Cc1c(N2C[C@@H](C)N(C(c3ccc(F)cc3)c3ccc(F)cc3)C[C@@H]2C)c2nc(C#N)ccc2n(C)c1=O = not satisfied
• COC[C@@H]1CN(c2cc(=O)n(C)c3ccc(C#N)nc23)[C@@H](C)CN1C(c1ccc(F)cc1)c1nc(C2CC2)no1 (single isomer, unassigned) [Example 1394] = satisfied
• C[C@@H]1CN(c2cc(=O)n(C)c3ccc(C#N)nc23)[C@@H](C)CN1C(c1ccc(F)cc1)c1ncccc1F (single isomer, unassigned) [Example 187] = satisfied
• C[C@@H]1CN(c2cc(=O)n(C)c3ccc(C#N)nc23)[C@@H](C)CN1C(c1c(F)cc(O)cc1F)C(F)(F)F (single isomer, unassigned) [Example 592] = not satisfied
• CC[C@H]1CN(C(C)c2ccc(C(F)(F)F)cc2)[C@H](CC)CN1c1cc(=O)n(C)c2ccc(C#N)nc12 (single isomer, unassigned) [Example 1051] = satisfied
• COC[C@@H]1CN(c2cc(=O)n(C)c3ccc(C#N)nc23)[C@@H](C)CN1C(c1ccc(F)cc1)c1ccon1 (single isomer, unassigned) [Example 1399] = satisfied
• Cc1ccc(C(c2cccc(F)n2)N2C[C@H](C)N(c3cc(=O)n(C)c4ccc(C#N)nc34)C[C@H]2C)cc1 (single isomer, unassigned) [Example 479] = satisfied
• Cc1ncc(C(c2ccc(F)cc2)N2C[C@H](C)N(c3cc(=O)n(C)c4ccc(C#N)nc34)C[C@H]2C)cn1 (single isomer, unassigned) = not satisfied
• C[C@@H]1CN(c2cc(=O)n(C)c3ccc(C#N)nc23)CCN1C(c1ccc(Cl)cc1)c1ccc(Cl)cc1 = not satisfied
• COC(=O)C1CN(C(c2ccc(F)cc2)c2ccc(F)cc2)CCN1c1cc(=O)n(C)c2ccc(C#N)nc12 (single isomer, unassigned) [Example 136] = not satisfied
• Cn1c(=O)cc(N2CCN(C(c3ccc(F)cc3)c3ccc(F)cc3)CC2C(=O)NC2CC2)c2nc(C#N)ccc21 (single isomer, unassigned) [Example 140] = not satisfied
• Cc1ccc(C(c2cccc(F)c2)N2C[C@H](C)N(c3cc(=O)n(C)c4ccc(C#N)nc34)C[C@H]2C)nc1 (single isomer, unassigned) [Example 215] = satisfied
• COC(=O)C1CN(c2c(F)c(=O)n(C)c3ccc(C#N)nc23)CCN1C(c1ccc(Cl)cc1)c1ccc(Cl)cc1 (single isomer, unassigned) [Example 95] = not satisfied
• C[C@@H]1CN(C(c2ccc(F)cc2)c2ccc(Cl)cc2)[C@@H](CO)CN1c1cc(=O)n(C)c2ccc(C#N)nc12 (some centres unmarked) [Example 1175] = not satisfied
• CC[C@H]1CN(C(c2ccc(Cl)cc2)c2ccc(Cl)cc2)[C@H](C)CN1c1cc(=O)n(C)c2ccc(C#N)nc12 = satisfied
• C[C@@H]1CN(c2cc(=O)n(C)c3ccc(C#N)nc23)[C@@H](C)CN1C(c1ccc(F)cc1)c1cccc(F)c1 (mixture of isomers) [Example 248] = not satisfied
• Cn1c(=O)cc(N2CCN(C(c3ccc(F)cc3)c3ccc(F)cc3)CC2CF)c2nc(C#N)ccc21 (single isomer, unassigned) [Example 151] = not satisfied
• Cn1c(=O)cc(N2CCN(C(c3ccc(F)cc3)c3ccc(F)cc3)C(C(C)(C)O)C2)c2nc(C#N)ccc21 (single isomer, unassigned) [Example 79] = not satisfied
• CC[C@@H]1CN(c2cc(=O)n(C)c3ccc(C#N)nc23)[C@@H](C)CN1Cc1c(F)cc(F)cc1F = satisfied

The measured values listed here are drawn from patent US10669272B2.
